experiment summary: Partition coefficient (logP)
measurement conditions: octanol/water, logP
Could you please report measured logP for the items listed next?
Answers are plain numbers.

# count of solved cases: 4
COC1/C=C/OC2(C)Oc3c(C)c(O)c4c(O)c(c(/C=N/N5CCN(N)CC5)cc4c3C2=O)NC(=O)/C(C)=C\C=C\C(C)C(O)C(C)C(O)C(C)C(OC(C)=O)C1C (stereo not given); 2
COC1/C=C/OC2(C)Oc3c(C)c(O)c4c(O)c(c(/C=N/OCCCc5ccccc5)cc4c3C2=O)NC(=O)/C(C)=C\C=C\C(C)C(O)C(C)C(O)C(C)C(OC(C)=O)C1C (stereo not given); 4.83
COC1/C=C/OC2(C)Oc3c(C)c(O)c4c(O)c(ccc4c3C2=O)NC(=O)/C(C)=C\C=C\C(C)C(O)C(C)C(O)C(C)C(OC(C)=O)C1C (stereo not given); 0.78
COC1/C=C/OC2(C)Oc3c(C)c(O)c4c(O)c(c(/C=N/N5CCCCCCC5)cc4c3C2=O)NC(=O)/C(C)=C\C=C\C(C)C(O)C(C)C(O)C(C)C(OC(C)=O)C1C (stereo not given); 3.1

We now examine a further molecule.
For COC1/C=C/OC2(C)Oc3c(C)c(O)c4c(O)c(c(/C=N/Nc5ccc([N+](=O)[O-])cc5[N+](=O)[O-])cc4c3C2=O)NC(=O)/C(C)=C\C=C\C(C)C(O)C(C)C(O)C(C)C(OC(C)=O)C1C (stereo not given) , what is its reported logP? 3.81

---

measured target: UniProt P03359
experiment summary: Ability to inhibit simian sarcoma virus reverse transcriptase
measurement conditions: read-out: IC50
pIC50: −log10 of the molar value.
Y means recorded pIC50 is 5 or above; N means it is below 5.

Form field: pIC50 at least 5? Entry: CCCCCCCCN(CCCCCCCC)/N=C/c1cc2c3c4c(C)c(O)c2c(O)c1NC(=O)/C(C)=C\C=C\C(C)C(O)C(C)C(O)C(C)C(OC(C)=O)C(C)C(OC)/C=C/OC(C)(O4)C3=O (stereo in doubt; 8) Y

I'd appreciate it if you could say whether CCCCCN(CCCCC)/N=C/c1cc2c3c4c(C)c(O)c2c(O)c1NC(=O)/C(C)=C\C=C\C(C)C(O)C(C)C(O)C(C)C(OC(C)=O)C(C)C(OC)/C=C/OC(C)(O4)C3=O (stereo unspecified) has pIC50 at least equal to 5. Y

---

measured target: Gag-Pol polyprotein (Woolly monkey sarcoma virus) (UniProt P03359)
Sequence (P03359 whole entry): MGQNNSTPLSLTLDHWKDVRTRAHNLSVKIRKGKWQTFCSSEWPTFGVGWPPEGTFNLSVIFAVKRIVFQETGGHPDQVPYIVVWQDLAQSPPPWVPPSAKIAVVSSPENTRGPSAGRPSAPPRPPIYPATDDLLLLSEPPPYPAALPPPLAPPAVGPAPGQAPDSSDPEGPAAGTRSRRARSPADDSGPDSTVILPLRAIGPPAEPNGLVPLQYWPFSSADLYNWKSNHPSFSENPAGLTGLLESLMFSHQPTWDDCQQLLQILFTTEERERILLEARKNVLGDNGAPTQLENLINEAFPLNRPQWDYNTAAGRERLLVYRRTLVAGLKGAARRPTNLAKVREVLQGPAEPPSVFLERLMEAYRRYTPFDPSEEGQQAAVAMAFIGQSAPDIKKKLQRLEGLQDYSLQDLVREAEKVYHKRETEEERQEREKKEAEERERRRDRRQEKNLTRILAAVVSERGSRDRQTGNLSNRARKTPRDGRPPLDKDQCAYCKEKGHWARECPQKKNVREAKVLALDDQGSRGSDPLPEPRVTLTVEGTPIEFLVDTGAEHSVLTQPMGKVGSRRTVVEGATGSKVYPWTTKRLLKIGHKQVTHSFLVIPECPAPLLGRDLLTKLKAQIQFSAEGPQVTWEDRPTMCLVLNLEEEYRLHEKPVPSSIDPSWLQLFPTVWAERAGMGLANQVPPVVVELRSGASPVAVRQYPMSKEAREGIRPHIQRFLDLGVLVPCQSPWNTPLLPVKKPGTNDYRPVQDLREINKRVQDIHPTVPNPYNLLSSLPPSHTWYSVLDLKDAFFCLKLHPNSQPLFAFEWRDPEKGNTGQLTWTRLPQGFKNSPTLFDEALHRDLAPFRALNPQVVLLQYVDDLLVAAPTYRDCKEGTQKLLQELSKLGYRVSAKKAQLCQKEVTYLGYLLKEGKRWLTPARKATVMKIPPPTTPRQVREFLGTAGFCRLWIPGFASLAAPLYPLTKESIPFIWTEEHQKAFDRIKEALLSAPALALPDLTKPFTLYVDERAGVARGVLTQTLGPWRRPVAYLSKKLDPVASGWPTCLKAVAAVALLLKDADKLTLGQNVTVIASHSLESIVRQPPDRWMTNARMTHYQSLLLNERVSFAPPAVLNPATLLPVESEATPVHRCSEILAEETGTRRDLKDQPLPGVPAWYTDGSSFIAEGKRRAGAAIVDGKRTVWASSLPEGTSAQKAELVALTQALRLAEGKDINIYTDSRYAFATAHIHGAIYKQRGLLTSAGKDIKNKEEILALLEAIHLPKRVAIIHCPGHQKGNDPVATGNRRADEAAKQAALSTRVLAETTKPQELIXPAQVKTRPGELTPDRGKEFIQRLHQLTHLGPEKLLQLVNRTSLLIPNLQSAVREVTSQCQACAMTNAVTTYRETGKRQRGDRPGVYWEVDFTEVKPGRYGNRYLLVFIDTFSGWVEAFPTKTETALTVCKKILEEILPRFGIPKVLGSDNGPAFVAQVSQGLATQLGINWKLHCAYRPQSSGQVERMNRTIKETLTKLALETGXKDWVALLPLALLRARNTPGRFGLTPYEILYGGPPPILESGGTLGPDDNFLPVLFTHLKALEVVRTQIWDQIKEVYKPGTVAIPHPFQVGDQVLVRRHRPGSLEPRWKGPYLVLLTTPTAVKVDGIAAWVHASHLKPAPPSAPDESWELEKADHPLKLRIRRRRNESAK
experiment summary: Inhibition of simian sarcoma virus reverse transcriptase
Threshold 5: Log 1/C strictly smaller gives Condition met, otherwise Condition not met.

Recorded results for 3 molecules are shown here.
COC1/C=C/OC2(C)Oc3c(C)c(O)c4c(O)c(c(/C=N/N5C(C)CN(Cc6ccc(C#N)cc6)CC5C)cc4c3C2=O)NC(=O)/C(C)=C\C=C\C(C)C(O)C(C)C(O)C(C)C(OC(C)=O)C1C (stereo not given); Condition met
COC1/C=C/OC2(C)Oc3c(C)c(O)c4c(O)c(ccc4c3C2=O)NC(=O)/C(C)=C\C=C\C(C)C(O)C(C)C(O)C(C)C(OC(C)=O)C1C (stereo not given); Condition met
COC1/C=C/OC2(C)Oc3c(C)c(O)c4c(O)c(c(/C=N/OCCCc5ccccc5)cc4c3C2=O)NC(=O)/C(C)=C\C=C\C(C)C(O)C(C)C(O)C(C)C(OC(C)=O)C1C (stereo not given); Condition not met

Then there is this molecule:
I'd appreciate it if you could check whether COC1/C=C/OC2(C)Oc3c(C)c(O)c4c(O)c(c(/C=N/N5CCCCCCCCCCCCCCC5)cc4c3C2=O)NC(=O)/C(C)=C\C=C\C(C)C(O)C(C)C(O)C(C)C(OC(C)=O)C1C (stereo in doubt; 18) has Log 1/C smaller than 5. Condition not met

---

experiment summary: The logarithm of the reciprocal of the concentration which produces 50% inhibition of mammalian alpha DNA polymerase.
Rule: Log 1/C of 4 or more gives Yes; anything lower gives No.

Study these solved cases before continuing.
COC1/C=C/OC2(C)Oc3c(C)c(O)c4c(O)c(c(/C=N/N5C(C)CN(Cc6ccc(C#N)cc6)CC5C)cc4c3C2=O)NC(=O)/C(C)=C\C=C\C(C)C(O)C(C)C(O)C(C)C(OC(C)=O)C1C (stereo unspecified); Yes
CCCCCN(CCCCC)/N=C/c1cc2c3c4c(C)c(O)c2c(O)c1NC(=O)/C(C)=C\C=C\C(C)C(O)C(C)C(O)C(C)C(OC(C)=O)C(C)C(OC)/C=C/OC(C)(O4)C3=O (stereo unspecified); Yes
COC1/C=C/OC2(C)Oc3c(C)c(O)c4c(O)c(c(/C=N/N5CCCCCCCCCCCC5)cc4c3C2=O)NC(=O)/C(C)=C\C=C\C(C)C(O)C(C)C(O)C(C)C(OC(C)=O)C1C (stereo in doubt; 17); Yes
COC1/C=C/OC2(C)Oc3c(C)c(O)c4c(O)c(c(/C=N/N5CCN(N)CC5)cc4c3C2=O)NC(=O)/C(C)=C\C=C\C(C)C(O)C(C)C(O)C(C)C(OC(C)=O)C1C (stereo unspecified); No
COC1/C=C/OC2(C)Oc3c(C)c(O)c4c(O)c(c(/C=N/NC5CCCCCCCCCCCCCC5)cc4c3C2=O)NC(=O)/C(C)=C\C=C\C(C)C(O)C(C)C(O)C(C)C(OC(C)=O)C1C (stereo unspecified); Yes

Confirm if Log 1/C reported for the compound COC1/C=C/OC2(C)Oc3c(C)c(O)c4c(O)c(c(O)cc4c3C2=O)NC(=O)/C(C)=C\C=C\C(C)C(O)C(C)C(O)C(C)C(OC(C)=O)C1C (stereo unspecified) is 4 or above. No

Hi, just wondering whether CCCCCCCCN(CCCCCCCC)/N=C/c1cc2c3c4c(C)c(O)c2c(O)c1NC(=O)/C(C)=C\C=C\C(C)C(O)C(C)C(O)C(C)C(OC(C)=O)C(C)C(OC)/C=C/OC(C)(O4)C3=O (stereo in doubt; 8) shows Log 1/C of 4 or higher. Yes

Say whether CCCCCCCCO/N=C/c1cc2c3c4c(C)c(O)c2c(O)c1NC(=O)/C(C)=C\C=C\C(C)C(O)C(C)C(O)C(C)C(OC(C)=O)C(C)C(OC)/C=C/OC(C)(O4)C3=O (stereo unspecified) shows Log 1/C of 4 or more. Yes

Reported Log 1/C at or above 4? COC1/C=C/OC2(C)Oc3c(C)c(O)c4c(O)c(ccc4c3C2=O)NC(=O)/C(C)=C\C=C\C(C)C(O)C(C)C(O)C(C)C(OC(C)=O)C1C (stereo unspecified) No

Determine whether measured Log 1/C meets or exceeds 4 for COC1/C=C/OC2(C)Oc3c(C)c(O)c4c(O)c(c(/C=N/N5C(C)CN(Cc6ccccc6)CC5C)cc4c3C2=O)NC(=O)/C(C)=C\C=C\C(C)C(O)C(C)C(O)C(C)C(OC(C)=O)C1C (stereo unspecified) Yes

Given the entry COC1/C=C/OC2(C)Oc3c(C)c(O)c4c(O)c(c(/C=N/N5CCCC5)cc4c3C2=O)NC(=O)/C(C)=C\C=C\C(C)C(O)C(C)C(O)C(C)C(OC(C)=O)C1C (stereo unspecified) , answer whether its Log 1/C meets or surpasses 4. No

---

experiment summary: Partition coefficient (logP)
measurement conditions: octanol/water, logP
observable: logP
One number for each entry.

Solved cases (3 shown):
CCCCN(CCCC)/N=C/c1cc2c3c4c(C)c(O)c2c(O)c1NC(=O)/C(C)=C\C=C\C(C)C(O)C(C)C(O)C(C)C(OC(C)=O)C(C)C(OC)/C=C/OC(C)(O4)C3=O (stereo not given); 3.66
COC1/C=C/OC2(C)Oc3c(C)c(O)c4c(O)c(c(/C=N/N5CCCCC5)cc4c3C2=O)NC(=O)/C(C)=C\C=C\C(C)C(O)C(C)C(O)C(C)C(OC(C)=O)C1C (stereo not given); 2.35
COC1/C=C/OC2(C)Oc3c(C)c(O)c4c(O)c(c(/C=N/NC5CCCCCCCCCCCCCC5)cc4c3C2=O)NC(=O)/C(C)=C\C=C\C(C)C(O)C(C)C(O)C(C)C(OC(C)=O)C1C (stereo not given); 6.78

Would you mind listing logP for each of the following compounds?
1. COc1cccc(CN2CCN(/N=C/c3cc4c5c6c(C)c(O)c4c(O)c3NC(=O)/C(C)=C\C=C\C(C)C(O)C(C)C(O)C(C)C(OC(C)=O)C(C)C(OC)/C=C/OC(C)(O6)C5=O)CC2)c1 (stereo not given)
2. COC1/C=C/OC2(C)Oc3c(C)c(O)c4c(O)c(c(/C=N/N5C(C)CN(Cc6ccc(C#N)cc6)CC5C)cc4c3C2=O)NC(=O)/C(C)=C\C=C\C(C)C(O)C(C)C(O)C(C)C(OC(C)=O)C1C (stereo not given)

[3.34, 3.71]

---

experiment summary: The logarithm of the reciprocal of the concentration which produces 50% inhibition of mammalian alpha DNA polymerase.
observable: Log 1/C
Numbers only.

Here's what some known entries look like.
CCN(CC)Cc1cc2c3c4c(C)c(O)c2c(O)c1NC(=O)/C(C)=C\C=C\C(C)C(O)C(C)C(O)C(C)C(OC(C)=O)C(C)C(OC)/C=C/OC(C)(O4)C3=O (stereo not drawn); 3
COC1/C=C/OC2(C)Oc3c(C)c(O)c4c(O)c(c(/C=N/OC(c5ccccc5)c5ccccc5)cc4c3C2=O)NC(=O)/C(C)=C\C=C\C(C)C(O)C(C)C(O)C(C)C(OC(C)=O)C1C (stereo not drawn); 4.62

# input for lookup
Name the reported Log 1/C value associated with the molecule COC1/C=C/OC2(C)Oc3c(C)c(O)c4c(O)c(c(CN5CCNCC5)cc4c3C2=O)NC(=O)/C(C)=C\C=C\C(C)C(O)C(C)C(O)C(C)C(OC(C)=O)C1C (stereo not drawn) 2.52
